Cited source: patent US11634477

biological target: SARS-CoV-2 RBD (SARS-CoV-2, UniProt P0DTC2); test: ELISA
measured_property: EC50 (ng/mL)
Answers are plain numbers, in ng/mL.

Example cases with answers are listed next.
# binder, unit_text, EC50
rows = [
    ("C122 (antibody, V domains shown) VH: EVQLVESGGGLIQPGGSLRLSCAASGLTVSSNYMSWVRQAPGKGLEWVSVLYSGGSSFYADSVKGRFTISRDNSKNTLYLQMNSLRAEDTAVYYCARESGDTTMAFDYWGQGTLVTVSS VL: DIQLTQSPSFLSASVGDRVTITCRASQGISSYLAWYQQKPGKAPKLLIYAASTLQSGVPSRFSGSGSGTEFTLTISSLQPEDFATYYCQQLNSDSYTFGQGTKLEIK", "ng/mL", 2.67),
    ("C202 (antibody, V domains shown) VH: EVQLVESGGGLVQPGGSLRLSCAASGFTVSSNYMSWVRQAPGKGLEWVSLIYSGGSTYYADSVKGRFTISRDNSKNTLYLQMNSLRAEDTAVYYCARDTLGRGGDYWGQGTLVTVSS VL: DIQLTQSPSSLSASVGDRVTITCQASQDISNYLNWYQQKPGKAPKLLIYDASNLETGVPSRFSGSGSGTDFTFTISSLQPEDIATYYCQQYDNLPRSFGQGTKLEIK", "ng/mL", 3.4),
]

Could you now consider this next binder?
EC50 reported for this binder C162 (antibody, V domains shown) VH: QVQLQQWGAGLLKPSETLSLTCAVSGGSLSGFYWTWIRQPPGKGLEWIGETNHFGSTDYKASLKSRVTISVGMSRNQFSLKVTSLTAADTAVYYCARKPLLYSDFSPGAFDVWGQGTMVTVSS VL: EIVLTQSPGTLSLSPGERATLSCRASQTLTANYLAWYQQKPGQAPRLLIYGASKRAAGIPDRFSGSGSGTDFTLSITRLEPEDFAVYYCQQYHTTPRTFGGGTKVEI : 1.18
